system: UO-31 renal; assay: NCI tumour cell line growth inhibition, 48 h
OBSERVABLE: TGI

Consider the reported TGI for these molecules:
Data request: For CN(C)Cc1c[nH]c2c(NCCN)c3c(c(NCCN)c12)C(=O)c1ccccc1C3=O , what is its reported TGI?
Data returned: 26 µM

Data request: For COc1ccc(CC(O)CN2CCOCC2)cc1 (centres undefined) , what is its reported TGI?
Data returned: > 100 µM

Data request: For N#C/C(=C\c1cc(Br)c(O)c(Br)c1)c1cccnc1 , what is its reported TGI?
Data returned: 58.1 µM

Data request: For CC(=O)OC1COC(n2c(=S)n(-c3ccccc3)c(=O)c3cc(Br)ccc32)C(OC(C)=O)C1OC(C)=O (centres undefined) , what is its reported TGI?
Data returned: > 100 µM

Data request: For CN(C)CCCN1C(=S)N(CCCN(C)C)c2c3cc(O)ccc3nc3c([N+](=O)[O-])ccc1c23 , what is its reported TGI?
Data returned: 18.7 µM

Data request: For O=c1c2c3c(sc2n2c(-c4cc(-c5ccccc5)nn4-c4ccccc4)nnc2n1Cc1ccccc1)CCCC3 , what is its reported TGI?
Data returned: > 100 µM

Continuing:
Data request: For COc1cc([N+](=O)[O-])c(OC)cc1-c1nc2sc(Cl)cn2c1/C=N/Nc1ccccn1 , what is its reported TGI?
Data returned: > 50 µM

Data request: For CC(C)c1ccccc1NC(=O)/C(Cl)=C1/Sc2ccccc2NC1=O , what is its reported TGI?
Data returned: > 100 µM

Data request: For COc1ccc2cc(-c3ccc(-c4ccc(C(=N)N)s4)s3)ccc2c1 , what is its reported TGI?
Data returned: 9.72 µM

Data request: For CCOC(=O)/C(=C/c1cccc(OC)c1)N(CC)CC , what is its reported TGI?
Data returned: > 100 µM

Data request: For CCOC(=O)/C=C(\C)c1ccc(C)cc1C , what is its reported TGI?
Data returned: > 100 µM

Data request: For CCN(C(=S)N[C@@H](Cc1ccccc1)C(=O)N[C@@H](CC(C)C)C(=O)OC)c1ccccc1 , what is its reported TGI?
Data returned: > 100 µM

Data request: For CO[C@]12CC(=O)C3(C(C[C@H]4CC5CC=C6C[C@@H](OC(C)=O)CC[C@]6(OC(C)=O)C5C[C@@]43C)C1)C1C[C@H]3[C@@H]4CC=C5C[C@@H](OC(C)=O)CC[C@]5(OC(C)=O)[C@H]4CC[C@]3(C)C12 (some centres undefined) , what is its reported TGI?
Data returned: 52.6 µM

Data request: For C=CC[C@]12C[C@@H](C(=O)OC)N(C(=O)OC)[C@H]1N(S(=O)(=O)c1ccccc1)c1ccccc12 , what is its reported TGI?
Data returned: > 100 µM

Data request: For CC(CC(=O)Nc1ccc(NC(=O)CC(C)N=NC(N)=S)cc1)N=NC(N)=S (centres undefined) , what is its reported TGI?
Data returned: > 100 µM

Data request: For CC(=O)N/N=C1\NC(=O)C[C@H]2[C@@H]3CC=C4C[C@@H](OC(C)=O)CC[C@]4(C)[C@H]3CC[C@]12C , what is its reported TGI?
Data returned: > 100 µM

Data request: For O=C(/C=C/c1ccccc1)CC(c1ccccc1)N1CCOCC1 (centres undefined) , what is its reported TGI?
Data returned: 3.24 µM

Data request: For CN(C)c1nc(=NCc2ccccc2)ss1 , what is its reported TGI?
Data returned: > 10 µM

Data request: For COc1c(Br)cc(Br)c(OC)c1-c1[nH]c(Br)c(Br)c1Br , what is its reported TGI?
Data returned: 8.73 µM
